- ASSAY_SYSTEM: Factor X (FX), P00742
- Sequence (P00742 whole entry, looked up): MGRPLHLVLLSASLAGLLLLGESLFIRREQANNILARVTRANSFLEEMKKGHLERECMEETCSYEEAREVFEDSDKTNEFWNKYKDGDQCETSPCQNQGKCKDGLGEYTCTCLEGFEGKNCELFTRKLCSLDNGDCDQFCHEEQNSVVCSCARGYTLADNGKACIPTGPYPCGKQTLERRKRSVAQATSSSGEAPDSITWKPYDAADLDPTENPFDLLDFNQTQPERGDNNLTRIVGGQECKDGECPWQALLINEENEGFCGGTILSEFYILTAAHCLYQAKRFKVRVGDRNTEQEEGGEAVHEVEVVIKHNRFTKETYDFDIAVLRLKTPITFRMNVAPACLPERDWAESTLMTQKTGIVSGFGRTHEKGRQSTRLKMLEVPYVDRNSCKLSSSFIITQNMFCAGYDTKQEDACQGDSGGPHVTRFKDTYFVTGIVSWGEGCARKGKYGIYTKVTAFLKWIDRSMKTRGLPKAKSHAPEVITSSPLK
VALUE_TYPE: KM of FX activation by FIXa in the Xase complex (FVIIIa, PC/PS vesicles, Ca2+) (µM)
# number only, unit µM dropped from output

INSERT INTO assay_data (protein, numeric_value) VALUES
  ('FIXa variant D203N/F205T/R338A (mature FIX numbering) (protein) chain 1: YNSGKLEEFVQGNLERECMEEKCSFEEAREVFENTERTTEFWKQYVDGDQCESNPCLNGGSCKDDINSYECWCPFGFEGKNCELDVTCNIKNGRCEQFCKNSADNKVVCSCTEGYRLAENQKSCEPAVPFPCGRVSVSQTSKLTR chain 2: VVGGEDAKPGQFPWQVVLNGKVNATCGGSIVNEKWIVTAAHCVETGVKITVVAGEHNIEETEHTEQKRNVIRIIPHHNYNAAINKYNHDIALLELDEPLVLNSYVTPICIADKEYTNIFLKFGSGYVSGWGRVFHKGRSALVLQYLRVPLVDRATCLASTKFTIYNNMFCAGFHEGGRDSCQGDSGGPHVTEVEGTSFLTGIISWGEECAMKGKYGIYTKVSRYVNWIKEKTKLT', 0.0385);

query: Quickly give me recorded KM of FX activation by FIXa in the Xase complex (FVIIIa, PC/PS vesicles, Ca2+) for FIXa variant R318Y/R338E/R403E (mature FIX numbering) (protein) chain 1: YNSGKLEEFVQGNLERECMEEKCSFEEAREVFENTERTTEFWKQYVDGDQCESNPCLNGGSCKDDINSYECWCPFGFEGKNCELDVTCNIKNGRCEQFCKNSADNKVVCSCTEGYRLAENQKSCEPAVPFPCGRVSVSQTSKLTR chain 2: VVGGEDAKPGQFPWQVVLNGKVDAFCGGSIVNEKWIVTAAHCVETGVKITVVAGEHNIEETEHTEQKRNVIRIIPHHNYNAAINKYNHDIALLELDEPLVLNSYVTPICIADKEYTNIFLKFGSGYVSGWGRVFHKGYSALVLQYLRVPLVDRATCLESTKFTIYNNMFCAGFHEGGRDSCQGDSGGPHVTEVEGTSFLTGIISWGEECAMKGKYGIYTKVSEYVNWIKEKTKLT
result: 0.0597
